Quick list: MIC P. aeruginosa PAO1 per entry.
- Tested on: P. aeruginosa PAO1
- Assay type: cell-based
- conditions: PAO1, 18 h
Where a SMILES comes first, the peptide text is derived from it. Bridges are numbered along the chain shown (N, C = ends). [ ]: non-standard residue; d: D form. The star is where a group is joined. ξ: configuration not given here. Hexanoyl(4ξ-Me) = CCC(C)CCC(=O)*; dOrn = NCCC[C@@H](N)C(=O)O; Orn = NCCC[C@H](N)C(=O)O; Dap = NC[C@H](N)C(=O)O
Answer in µg/mL, number only, no unit symbol.

Below: 5 compounds and their reported MIC P. aeruginosa PAO1.
| compound | MIC P. aeruginosa PAO1 (µg/mL) |
| --- | --- |
| CCC(C)CCC(=O)N[C@H](CO)C(=O)N[C@H](Cc1ccc(O)cc1)C(=O)N[C@H](Cc1c[nH]c2ccccc12)C(=O)N[C@H](CCCN)C(=O)N[C@@H](CCCN)C(=O)NCC(=O)N[C@H](CCCN)C(=O)N[C@@H](Cc1c[nH]c2ccccc12)C(=O)N[C@@H]1C(=O)N[C@@H]([C@@H](C)CC)C(=O)NCC(=O)N[C@H](CO)C(=O)N[C@H](C)C(=O)O[C@@H]1C (stereo partly drawn) [4d, D-Ala13, D-Ser12-Relacdine B] ({Hexanoyl(4ξ-Me)}-[dS][dY][dW][dOrn][Orn]G[dOrn]WTIG[dS][dA]; ester 9-C) | 8 |
| CCC(C)CCC(=O)N[C@H](CO)C(=O)N[C@H](Cc1ccc(O)cc1)C(=O)N[C@H](Cc1c[nH]c2ccccc12)C(=O)N[C@H](CCCN)C(=O)N[C@@H](CCCN)C(=O)NCC(=O)N[C@H](CCCN)C(=O)N[C@@H](Cc1c[nH]c2ccccc12)C(=O)N[C@@H]1C(=O)N[C@@H]([C@@H](C)CC)C(=O)NCC(=O)N[C@H](CO)C(=O)N[C@@H](C)C(=O)O[C@@H]1C (stereo partly drawn) [4c, L-Ala13, D-Ser12-Relacdine B] ({Hexanoyl(4ξ-Me)}-[dS][dY][dW][dOrn][Orn]G[dOrn]WTIG[dS]A; ester 9-C) | 4 |
| CCC(C)CCC(=O)N[C@H](CO)C(=O)N[C@H](Cc1ccc(O)cc1)C(=O)N[C@H](Cc1c[nH]c2ccccc12)C(=O)N[C@H](CCCN)C(=O)N[C@@H](CCCN)C(=O)NCC(=O)N[C@H](CCCN)C(=O)N[C@@H](Cc1c[nH]c2ccccc12)C(=O)N[C@@H]1C(=O)N[C@@H]([C@@H](C)CC)C(=O)NCC(=O)N[C@@H](CO)C(=O)NCC(=O)O[C@@H]1C (stereo partly shown) [3a, Relacidine A] ({Hexanoyl(4ξ-Me)}-[dS][dY][dW][dOrn][Orn]G[dOrn]WTIGSG; ester 9-C) | 4 |
| CCC(C)CCC(=O)N[C@H](CO)C(=O)N[C@H](Cc1ccc(O)cc1)C(=O)N[C@H](Cc1c[nH]c2ccccc12)C(=O)N[C@H](CCCN)C(=O)N[C@@H](CCCN)C(=O)NCC(=O)N[C@H](CCCN)C(=O)N[C@@H](Cc1c[nH]c2ccccc12)C(=O)N[C@@H]1C(=O)N[C@@H]([C@@H](C)CC)C(=O)NCC(=O)N[C@@H](CO)C(=O)N[C@@H](C)C(=O)O[C@@H]1C (stereo partly shown) [4a, Relacidine B] ({Hexanoyl(4ξ-Me)}-[dS][dY][dW][dOrn][Orn]G[dOrn]WTIGSA; ester 9-C) | 4 |
| CCC(C)CCC(=O)N[C@H](CO)C(=O)N[C@H](Cc1ccc(O)cc1)C(=O)N[C@H](Cc1c[nH]c2ccccc12)C(=O)N[C@H](CCCN)C(=O)N[C@@H](CCCN)C(=O)NCC(=O)N[C@H](CCCN)C(=O)N[C@@H](Cc1c[nH]c2ccccc12)C(=O)N[C@H]1CNC(=O)CNC(=O)[C@H](CO)NC(=O)CNC(=O)[C@H]([C@@H](C)CC)NC1=O (stereo partly shown) [compound 5, Relacidamide] ({Hexanoyl(4ξ-Me)}-[dS][dY][dW][dOrn][Orn]G[dOrn]W[Dap]IGSG; lactam 9-C) | 8 |

Incoming: Please tell me the measured MIC P. aeruginosa PAO1 for CCC(C)CCC(=O)N[C@H](CO)C(=O)N[C@H](Cc1ccc(O)cc1)C(=O)N[C@H](Cc1c[nH]c2ccccc12)C(=O)N[C@H](CCCN)C(=O)N[C@@H](CCCN)C(=O)NCC(=O)N[C@H](CCCN)C(=O)N[C@@H](Cc1c[nH]c2ccccc12)C(=O)N[C@@H]1C(=O)N[C@@H]([C@@H](C)CC)C(=O)NCC(=O)N[C@H](CO)C(=O)NCC(=O)O[C@@H]1C (stereo partly drawn) [3b, D-Ser12-Relacidine A] ({Hexanoyl(4ξ-Me)}-[dS][dY][dW][dOrn][Orn]G[dOrn]WTIG[dS]G; ester 9-C) ; system: P. aeruginosa PAO1.
Outgoing: 2

Incoming: Please tell me the measured MIC P. aeruginosa PAO1 for CCC(C)CCC(=O)N[C@H](CO)C(=O)N[C@H](Cc1ccc(O)cc1)C(=O)N[C@H](Cc1c[nH]c2ccccc12)C(=O)N[C@H](CCCN)C(=O)N[C@@H](CCCN)C(=O)NCC(=O)N[C@H](CCCN)C(=O)N[C@@H](Cc1c[nH]c2ccccc12)C(=O)N[C@@H]1C(=O)N[C@@H]([C@@H](C)CC)C(=O)NCC(=O)N[C@@H](CO)C(=O)N[C@H](C)C(=O)O[C@@H]1C (stereo partly drawn) [4b, D-Ala13, L-Ser12-Relacidine B] ({Hexanoyl(4ξ-Me)}-[dS][dY][dW][dOrn][Orn]G[dOrn]WTIGS[dA]; ester 9-C) ; system: P. aeruginosa PAO1.
Outgoing: 4
